Target: T1, human B7-H4 (purified monomeric recombinant human protein, ACRO biosystems) (human, UniProt Q7Z7D3 29-258, limits assumed, chemically biotinylated (EZ-Link NHS-LC-Biotin) in the yeast display and competition experiments; non-biotinylated in SPR)
T1 construct: Bought recombinant monomeric protein; also called B7x; B7S1
T1 sequence: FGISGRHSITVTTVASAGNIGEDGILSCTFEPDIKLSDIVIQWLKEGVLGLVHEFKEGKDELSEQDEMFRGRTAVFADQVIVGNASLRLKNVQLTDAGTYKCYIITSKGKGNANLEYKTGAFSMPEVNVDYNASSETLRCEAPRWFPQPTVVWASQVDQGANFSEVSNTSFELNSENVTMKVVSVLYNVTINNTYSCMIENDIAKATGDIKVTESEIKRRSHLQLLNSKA
Experiment: SPR (Carterra LSA); scFv-Fc captured on anti-human IgG Fc, antigen injected
measurement-label: kon (M⁻¹ s⁻¹)

{"binder": "A04 scFv-Fc (scFv, V domains shown, Tested as scFv-Fc fusion (human IgG1 Fc, vector pDNL9) in crude yeast supernatant; Combo 1 library) VH: EVQLVESGGGVVQPGRSLRLSCAASGFTFSSRSMNWVRQAPGKGLEWVSAISGSGDTTYYADSVKGRFTISRDNSKNTLYLQMNSLRAEDTAVYYCARKRWYGMDVWGQGTTVTVSS VL: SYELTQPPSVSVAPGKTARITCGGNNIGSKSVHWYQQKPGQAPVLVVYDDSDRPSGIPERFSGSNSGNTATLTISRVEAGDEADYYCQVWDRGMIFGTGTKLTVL", "reported-result": 310000}
{"binder": "A12 scFv-Fc (scFv, V domains shown, Tested as scFv-Fc fusion (human IgG1 Fc, vector pDNL9) in crude yeast supernatant; Combo 2 library) VH: EVQLVESGGGVVQPGRSLRLSCAASGFTFDNRAMNWVRQAPGKGLEWVSAISSSGSTMYYADSVKGRFTISRDNSKNTLYLQMNSLRAEDTAVYYCARKRWYGMDVWGQGTTVTVSS VL: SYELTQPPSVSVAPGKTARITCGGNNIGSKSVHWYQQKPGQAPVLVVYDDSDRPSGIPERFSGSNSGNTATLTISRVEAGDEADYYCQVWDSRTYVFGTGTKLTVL", "reported-result": 230000}
{"binder": "A11 scFv-Fc (scFv, V domains shown, Tested as scFv-Fc fusion (human IgG1 Fc, vector pDNL9) in crude yeast supernatant; Combo 2 library) VH: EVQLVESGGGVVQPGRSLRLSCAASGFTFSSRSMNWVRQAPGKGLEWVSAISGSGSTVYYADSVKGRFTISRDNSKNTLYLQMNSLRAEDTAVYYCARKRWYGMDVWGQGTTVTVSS VL: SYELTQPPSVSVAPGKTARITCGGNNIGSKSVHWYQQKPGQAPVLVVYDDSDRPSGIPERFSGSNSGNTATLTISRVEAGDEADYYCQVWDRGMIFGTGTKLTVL", "reported-result": 190000}

The reported numbers originate from patent US20240309095A1.
